Values from PubChem BioAssay AID1159580

Experiment: chemical genetic growth profiling, strain panel (AID 1159580);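 note: tested at 20 µM; growth read once vehicle control cultures reached saturation at 30 °C; 1 = growth at the plate median or of vehicle wells; lower values mean less growth of the strain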
Conditions: S. cerevisiae deletion strains, growth OD, locus YHR094C, strain hxt1, hits give low values
The campaign covered roughly 5,500 compounds. About 2,000 (36%) were called active. Inconclusive results (about 18%) are left out. The list shows a part of the results.
PROPERTY_NAME: normalized growth

compound="C#C[C@]1(OC(C)=O)CCC2C3CCC4=CC(=O)CC[C@@H]4C3CC[C@@]21C (stereo partly drawn)" property_name="normalized growth" assay_value=0.981
compound=Nc1ccc(S(=O)(=O)Nc2ccnn2-c2ccccc2)cc1 property_name="normalized growth" assay_value=0.988
compound="C/C=C(/C)C(=O)O[C@@H]1[C@H](OC(C)=O)[C@@]2(CO)C(CC1(C)C)C1=CCC3[C@@]4(C)CC[C@H](O[C@@H]5O[C@H](C(=O)O)[C@@H](O[C@@H]6O[C@H](CO)[C@@H](O)[C@H](O)[C@H]6O)[C@H](O)[C@H]5O[C@@H]5O[C@H](CO)[C@@H](O)[C@H](O)[C@H]5O)[C@](C)(CO)C4CC[C@@]3(C)[C@]1(C)C[C@H]2O (stereo partly drawn)" property_name="normalized growth" assay_value=1.03
compound=CCOP(=S)(OCC)Oc1cc(C)nc(C(C)C)n1 property_name="normalized growth" assay_value=0.996
compound="CC1(C)CC[C@@]2(C(=O)O)C(C1)C1=CCC3[C@@]4(C)CC[C@H](O)C(C)(C)C4CC[C@@]3(C)[C@]1(C)C[C@@H]2O (stereo partly drawn)" property_name="normalized growth" assay_value=1.02
compound=COc1cc(C(=O)O[C@H]2CC[C@@]3(C)[C@@H]4CC[C@H]5[C@]6(O)C[C@H](O)[C@@]7(O)[C@@H](CN8C[C@@H](C)CC[C@H]8[C@@]7(C)O)[C@]6(O)C[C@@]53O[C@]24O)cc(OC)c1OC property_name="normalized growth" assay_value=0.971
compound="C#C[C@]1(O)CCC2C3CCC4=CC(=O)CC[C@@H]4C3CC[C@@]21CC (stereo partly drawn)" property_name="normalized growth" assay_value=1
compound="C[C@@H]1OC(O[C@H]2[C@H](OC(=O)[C@]34CCC(C)(C)CC3C3=CCC5[C@@]6(C)CC[C@H](OC7O[C@@H](C)[C@H](O[C@@H]8OC[C@@H](O)[C@H](O)[C@H]8O)[C@@H](O)[C@H]7O)C(C)(C)C6CC[C@@]5(C)[C@]3(C)CC4O)OC[C@H](O)[C@H]2O)[C@H](O)[C@H](O)[C@H]1O[C@@H]1O[C@H](CO)[C@@H](O)[C@H](O)[C@H]1O (stereo partly drawn)" property_name="normalized growth" assay_value=0.982
compound=CCCCCCCCCCCC[C@H](C(=O)O)[C@@H](C)C(=O)O property_name="normalized growth" assay_value=0.989
compound=C/C=C(/C)C(=O)O[C@H]1CC[C@@]2(C)[C@@H]3CC[C@H]4[C@]5(O)C[C@H](O)[C@@]6(O)[C@@H](CN7C[C@@H](C)CC[C@H]7[C@@]6(C)O)[C@]5(O)C[C@@]42O[C@]13O property_name="normalized growth" assay_value=0.981
compound=COC1=C[C@@H]2[C@@H]3Cc4ccc(OC)c(O)c4[C@]2(CCN3C)CC1=O property_name="normalized growth" assay_value=0.978
compound="CC(=O)/C=C\\[C@@H]1[C@@]2(C)CCCC(C)(C)C2CC[C@@]1(C)O (stereo partly drawn)" property_name="normalized growth" assay_value=0.99
compound=CCOP(=S)(OCC)Oc1nc(Cl)c(Cl)cc1Cl property_name="normalized growth" assay_value=0.983
